# Test system: MALME-3M melanoma
# Assay notes: NCI tumour cell line growth inhibition, 48 h
Outcome label depends on TGI relative to 40 µM: at/above gives Satisfied, below gives Not satisfied.

Is it the case that `CCN(CC)CCOC(=O)/C(=C/c1ccc(OC)cc1)c1cc(OC)c(OC)c(OC)c1` has TGI reaching or exceeding 40 µM? Not satisfied

Also need `O=C(N/C(=C\c1ccc([N+](=O)[O-])cc1)c1nc2ccc(Cl)cc2[nH]1)c1ccccc1` , thanks. Satisfied

Also need C=CCCC(C)N(C(=O)OC(C)(C)C)S(=O)(=O)c1ccc(C)cc1 (centres undefined) , thanks. Satisfied

Also need N#Cc1nn(C2OC(COC(=O)c3ccccc3)C(OC(=O)c3ccccc3)C2OC(=O)c2ccccc2)c2nc[nH]c(=O)c12 (centres undefined) , thanks. Satisfied

Also need `COc1ccc(Cl)cc1NC(=O)c1c(NC(=O)C(F)(F)C(F)(F)F)sc2c1CCCCC2` , thanks. Not satisfied

Also need `COc1cccc(-c2nc(-c3ccc(NC(=O)c4ccccc4)cc3)[nH]c2-c2ccnc(Br)c2)c1` , thanks. Satisfied

Also need `O=C(O)CN(c1ccccc1)S(=O)(=O)c1ccc(Cl)cc1` , thanks. Satisfied

Also need `CCN(CC)C(=O)CNC(=O)OC(C)(C)C` , thanks. Satisfied

Also need CCCCCCCC(=O)OCC1OC(n2cc(F)c(=O)[nH]c2=O)C(NC(=O)OCc2ccccc2)C(OC(=O)CCCCCCC)C1O (centres undefined) , thanks. Satisfied

Also need `Cc1ccc(S(=O)(=O)/N=C(\[O-])C2=C(c3ccccc3)NN(C)c3nc4cccc[n+]4nc32)cc1` , thanks. Satisfied

Also need `O=S(=O)(O)c1ccc2c(N=Nc3ccccc3Cl)c(O)ccc2c1` , thanks. Satisfied

Also need OCCN=C1c2ccccc2C2C(c3ccccc31)C1c3ccccc3C(=NCCO)c3ccccc3C21 (centres undefined) , thanks. Satisfied

Also need CCCC#CC(O)(C(=O)OC1CCN(C)CC1)C1CCCCC1 (centres undefined) , thanks. Satisfied

Also need NCC1OC(n2cnc3c(=O)[nH]c(N)nc32)C(O)C1O (centres undefined) , thanks. Satisfied

Also need `CC(C)NC(=O)OCc1c(COC(=O)NC(C)C)c(-c2ccc[n+](COC(=O)C3CC3)c2)n2c1CCC2` , thanks. Satisfied

Also need `CC(C)c1cccc(C(C)C)c1N=C(N)C#N` , thanks. Satisfied

Also need O=C(COc1ccc(Cl)cc1)N1N=C(c2ccc([N+](=O)[O-])o2)CC1(O)c1ccccc1 (centres undefined) , thanks. Not satisfied

Also need CC(=O)NC1C(OCc2ccccc2)OC(COC(=O)CCCCCNc2ccc([N+](=O)[O-])c3[nH]c4ccc(O)cc4c(=O)c23)C(O)C1OC(C)C(=O)N[C@@H](C)C(=O)N[C@H](CCC(=O)OCc1ccccc1)C(N)=O (some centres undefined) , thanks. Not satisfied

Source: PubChem BioAssay (NCI)
